- System: HIV mutant strain 1 (E138K/G140S/Q148H/N155H)
- Assay type: cell-based
- condition.set: FC=EC50 of the mutant strain/EC50 of the wild strain, HeLa-CD4 cells
So I've got a bunch of compounds here, and I need their FC (fold change) for mutant strain 1 values.
Numbers only.

CCN1C(=O)c2c(O)c(=O)c(-c3nnc(Cc4ccc(F)cc4F)s3)cn2N2C[C@@H](C)C[C@@H]12    4.1
CCN1C(=O)c2c(O)c(=O)c(-c3nnc(Cc4c(F)cc(F)cc4F)s3)cn2N2CC[C@H](C)C[C@@H]12    5.1
C[C@@H]1CCN2[C@@H](C1)N(C)C(=O)c1c(O)c(=O)c(-c3nnc(Cc4c(F)cc(F)cc4F)s3)cn12    6.1
C[C@H]1CC[C@H]2N(C)C(=O)c3c(O)c(=O)c(-c4nnc(Cc5ccc(F)cc5F)s4)cn3N2C1    5.8
CCN1C(=O)c2c(O)c(=O)c(-c3nnc(Cc4ccc(F)cc4)s3)cn2N2[C@H](COC)CC[C@@H]12    20
CCN1C(=O)c2c(O)c(=O)c(-c3nnc(Cc4c(F)cc(F)cc4F)s3)cn2N2CCCC[C@@H]12    3.8

Consider now this further compound.
What reported FC (fold change) for mutant strain 1 corresponds to "CCN1C(=O)c2c(O)c(=O)c(-c3nnc(Cc4c(F)cc(F)cc4F)s3)cn2N2CCOC[C@@H]12" on HIV mutant strain 1 (E138K/G140S/Q148H/N155H)?
15
